system: MCF-7 human breast adenocarcinoma cells; experiment: MTT antiproliferative assay, MCF-7; format: cell-based; settings: Homo sapiens, MCF7, 72 h, MTT, 72 h treatment, mean ± SD; read-out: IC50 (µM) ± S.D. MCF-7 Breast Cancer
property-measured: IC50 (µM)

Past entries and their recorded results:
[[record]]
compound = "O=C(Nc1ccc(Cl)cc1)c1cc2ccccc2[nH]1 [Compound 4]"
test_result = 10.6

[[record]]
compound = "O=C(Nc1ccccn1)c1cc2ccccc2[nH]1 [Compound 10, N-(Pyridin-2-yl)-1H-indole-2-carboxamide]"
test_result = 70.3

[[record]]
compound = "O=C(Nc1cccc2c1C(=O)c1ccccc1C2=O)c1ccco1 [Compound 16]"
test_result = 33.1


[a] O=C(Nc1ccc2c(c1)C(=O)c1ccccc1C2=O)c1cc2ccccc2[nH]1 [Compound 14]
[b] O=C(Nc1ccc(F)cc1)c1cc2ccccc2[nH]1 [Compound 6]
Exercise: Lowest IC50? choose a or b Field: selected label. Fill in the label of the entry you choose.
Key: a

###

As shown below, each of these compounds has a reported Selectivity index (IC50 normal fibroblast/IC50 K-562) value.
tested on: K-562 human chronic myelogenous leukemia cells; assay: MTT antiproliferative assay, K-562; format: cell-based; settings: fibroblasts/leukemia; third value of the SI cell

Past entries and their recorded results:
[[record]]
structure_smiles_string = "O=C(Nc1cccc2c1C(=O)c1ccccc1C2=O)c1cc2ccccc2[nH]1"
test_result = "> 303"

[[record]]
structure_smiles_string = "O=C(Nc1ccc2c(c1)C(=O)c1ccccc1C2=O)c1cc2ccccc2[nH]1"
test_result = "> 164"

[[record]]
structure_smiles_string = "O=C(Nc1ccc(Cl)cc1)c1cc2ccccc2[nH]1"
test_result = "> 164"


// next item, Selectivity index (IC50 normal fibroblast/IC50 K-562) requested
Exercise: // Selectivity index (IC50 normal fibroblast/IC50 K-562) lookup, key: `O=C(Nc1ccc(F)cc1)c1cc2ccccc2[nH]1`
Key: > 1.2

Where do the numbers come from? From paper PMC12193374.
